This section presents compounds with their documented IC50 values.
- method.summary: Inhibitory activity against Translocase I
Numeric answer only, unit nM assumed.

Param item = CCCCCCCCCCCCNC[C@H](O[C@@H]1O[C@H](CN)[C@@H](O)[C@H]1O)[C@@H]1C[C@@H](O)[C@H](n2ccc(=O)[nH]c2=O)O1.O=C(O)C(F)(F)F ; retrieve measured IC50.
700

Request the reported IC50 associated with NC[C@H]1O[C@@H](O[C@@H](CNC(=O)c2ccc(-c3ccccc3)cc2)[C@@H]2C[C@@H](O)[C@H](n3ccc(=O)[nH]c3=O)O2)[C@H](O)[C@@H]1O
250

What does the data say about its IC50? Entry: NC[C@H]1O[C@@H](O[C@@H](CNC(=O)c2ccc(C3CCCCC3)cc2)[C@@H]2C[C@@H](O)[C@H](n3ccc(=O)[nH]c3=O)O2)[C@H](O)[C@@H]1O
390
